- Tested on: HCMV (strain AD169)
- protocol.summary: Inhibition of HCMV replication, plaque reduction assay (PRA, Hs-68 cells)
- Assay type: cell-based, Human Cytomegalovirus (HCMV)
- condition.summary: Human betaherpesvirus 5, AD169, Hs68, Group 1 Table 1 entries, read-out: PRA CMV EC50
measure.name: pEC50
// field semantics: pEC50 = negative decimal log of concentration (mol/L)

See these solved cases before continuing.
[
  {
    "smiles.string": "C[C@H](c1ccccc1)N(CC(=O)Nc1ccc(-c2csc(N)n2)cc1)C(=O)Cc1ccccn1",
    "pEC50": 4.51
  },
  {
    "smiles.string": "C[C@@H](NCC(=O)Nc1ccc(-c2csc(N)n2)cc1)c1ccccc1",
    "pEC50": 4.72
  },
  {
    "smiles.string": "CC(C)(C)OC(=O)N(CC(=O)Nc1ccc(-c2csc(N)n2)cc1)Cc1ccncc1",
    "pEC50": 4.06
  },
  {
    "smiles.string": "Nc1nc(-c2ccc(NC(=O)CN(Cc3ccccc3)C(=O)Cc3cccs3)cc2)cs1",
    "pEC50": 4.72
  },
  {
    "smiles.string": "Nc1nc(-c2ccc(NC(=O)CN(CCc3ccccn3)C(=O)C3CCCC3)cc2)cs1",
    "pEC50": 4.26
  },
  {
    "smiles.string": "Nc1nc(-c2ccc(NC(=O)CN(Cc3ccccc3)C(=O)C3CCCCC3)cc2)cs1",
    "pEC50": 4.82
  },
  {
    "smiles.string": "Nc1nc(-c2ccc(NC(=O)CN(Cc3ccc(Cl)cc3)C(=O)C3CCCCC3)cc2)cs1",
    "pEC50": 5.26
  },
  {
    "smiles.string": "Nc1nc(-c2ccc(NC(=O)CN(Cc3cccnc3)C(=O)C3CCCCC3)cc2)cs1",
    "pEC50": 4.31
  }
]

Req: Please report pEC50 for the following compound: Nc1nc(-c2ccc(NC(=O)CN(Cc3ccccc3)C(=O)Cc3ccsc3)cc2)cs1
Resp: 4.46

Req: In one line, give reported pEC50 of the entry CN(CC(=O)Nc1ccc(-c2csc(N)n2)cc1)Cc1ccccc1 .
Resp: 5.19

Req: Given Nc1nc(-c2ccc(NC(=O)CN(Cc3ccccc3)C(=O)CC3CCCC3)cc2)cs1 , respond with its pEC50.
Resp: 5.07

Req: Give the reported pEC50 for this compound. Nc1nc(-c2ccc(NC(=O)CN(Cc3ccccc3)C(=O)C3CCCC3)cc2)cs1
Resp: 4.80

Req: Consider the compound CN(CC(=O)Nc1ccc(-c2csc(N)n2)cc1)C(=O)c1ccncc1 and give its recorded pEC50.
Resp: 3.96

Req: Supply reported pEC50 belonging to this compound: Nc1nc(-c2ccc(NC(=O)CN(Cc3ccccc3)C(=O)Cc3ccccn3)cc2)cs1
Resp: 5.09

Req: Look up and state reported pEC50 for CC(=O)N(CC(=O)Nc1ccc(-c2csc(N)n2)cc1)Cc1ccccc1
Resp: 4.43
